Values compiled from patent US20120065063A1.

- TEST_SUMMARY: log P by HPLC on reversed-phase columns (EEC directive 79/831 Annex V.A8)
- Type: physicochemical
- RUN_PARAMETERS: acidic range pH 2.7, 0.1% aqueous formic acid/acetonitrile
MEASURED_PARAMETER: log P

{"MOLECULE": "Cc1cccc(C)c1C=C1C(=O)ON=C1c1cccc(Cl)c1Cl [Compound I-34]", "log P": 4.31}
{"MOLECULE": "Cc1cc(C)c(C=C2C(=O)ON=C2c2cccc(F)c2)c(C)c1 [Compound I-55]", "log P": 4.15}
{"MOLECULE": "Cc1cc(C)c(C=C2C(=O)ON=C2c2ccc(OCc3ccccc3)cc2)c(C)c1 [Compound I-64]", "log P": 5.01}
{"MOLECULE": "Cc1cc(C)c(C=C2C(=O)ON=C2c2ccc(Cl)cc2)c(C)c1 [Compound I-70]", "log P": 4.50}
{"MOLECULE": "COc1ccc(F)cc1C1=NOC(=O)C1=Cc1c(C)cccc1C [Compound I-21]", "log P": 3.75}
{"MOLECULE": "Cc1cc(C)c(C=C2C(=O)ON=C2c2ccccc2I)c(C)c1 [Compound I-22]", "log P": 4.51}
{"MOLECULE": "Cc1cccc(C2=NOC(=O)C2=Cc2c(C)cccc2C)c1C [Compound I-12]", "log P": 4.26}
{"MOLECULE": "COc1cccc(OC)c1C1=NOC(=O)C1=Cc1c(C)cc(C)cc1C [Compound I-15]", "log P": 3.95}
{"MOLECULE": "COc1cccc(C2=NOC(=O)C2=Cc2c(C)cc(C)cc2C)c1OC [Compound I-16]", "log P": 4.08}
{"MOLECULE": "Cc1cccc(C)c1C=C1C(=O)ON=C1c1cc(Br)ccc1Cl [Compound I-42]", "log P": 4.46}
{"MOLECULE": "Cc1ccccc1C1=NOC(=O)C1=Cc1c(C)cccc1C [Compound I-9]", "log P": 3.95}
{"MOLECULE": "Cc1cc(C)c(C=C2C(=O)ON=C2c2cccc([N+](=O)[O-])c2)c(C)c1 [Compound I-46]", "log P": 3.85}
{"MOLECULE": "Cc1cccc(C)c1C=C1C(=O)ON=C1c1cc(F)ccc1Cl [Compound I-39]", "log P": 3.96}
{"MOLECULE": "Cc1cccc(C)c1C=C1C(=O)ON=C1c1ccccc1Cl [Compound I-29]", "log P": 3.97}
{"MOLECULE": "COc1ccc(C2=NOC(=O)C2=Cc2c(C)cc(C)cc2C)cc1OC [Compound I-54]", "log P": 4.09}
{"MOLECULE": "Cc1cc(C)c(C=C2C(=O)ON=C2c2cc(F)ccc2F)c(C)c1 [Compound I-36]", "log P": 4.12}
{"MOLECULE": "Cc1cc(C)c(C=C2C(=O)ON=C2c2ccccc2SC(F)F)c(C)c1 [Compound I-32]", "log P": 4.27}
{"MOLECULE": "Cc1cc(C)c(C=C2C(=O)ON=C2c2cc(F)ccc2Cl)c(C)c1 [Compound I-38]", "log P": 4.42}
{"MOLECULE": "Cc1cc(C)c(C=C2C(=O)ON=C2c2ccccc2F)c(C)c1 [Compound I-23]", "log P": 4.07}
